Data origin: PubChem BioAssay

Would you mind telling me the reported NADPH fluorescence slope of each entry?
target.system: Voltage-gated potassium channel subunit beta-2 (Rattus norvegicus)
procedure.text: enhancers of rat Kvbeta2 NADPH turnover – biochemical, NADPH fluorescence, primary screen (AID 623);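 note: fluorescence intensity change per second fitted from 20 to 320 s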
conditions.used: Recombinant KvBeta, NADPH fluorescence decrease slope, 10 min; at 10 µM; stronger effect = lower value
Lab note: jot the number down without any unit.

### Prompt Need NADPH fluorescence slope, item "COC(=O)c1ccccc1S(=O)(=O)N(CCCN1CCOCC1)Cc1cccs1"
### Response 1.2e-05

### Prompt Next: "O=C(CC1CCCCC1)NCc1ccccn1"
### Response -5.1e-05

### Prompt Next: "CC(C)CCNC(=O)NC(=O)CSc1nnc(COc2ccccc2Cl)o1"
### Response -7.7e-06

### Prompt Next: "O=C(NCc1ccco1)c1noc2c1CCCCC2"
### Response -2.4e-05

### Prompt Next: "O=C(CSc1nc2ccccc2o1)N1CCN(c2ccc(Cl)cc2)CC1"
### Response -3.9e-05

### Prompt Next: "Cc1ccc(C)c(C(=O)NC2CC(C)(C)NC(C)(C)C2)c1"
### Response -5.3e-05

### Prompt Next: CCOC(=O)C1CCCN(C(=O)c2cc3c(-c4cccc(OC)c4)nn(C)c3s2)C1 (configuration not stated)
### Response -3.7e-05

### Prompt Next: "O=C(Nc1ccc(F)cc1)c1cccc2c1C(=O)N(Cc1ccccn1)C2"
### Response -3e-05

### Prompt Next: "CSc1nnc2c3ccccc3n(CCc3ccccc3)c2n1"
### Response 1.9e-05

### Prompt Next: "O=c1cc(-c2ccco2)oc2ccc(Cl)cc12"
### Response -2.4e-05

### Prompt Next: "CC(C)(C)n1nc2c(c1NC(=O)COc1ccc(Cl)cc1)CSC2"
### Response -3.3e-06

### Prompt Next: O=S(=O)(NCC(O)COCc1ccco1)c1cccs1 (configuration not stated)
### Response -3.7e-05

### Prompt Next: "CC(=O)O[C@@]12CO[C@@H]1C[C@H](O)[C@@]1(C)C(=O)[C@H](O)C3=C(C)[C@@H](OC(=O)[C@H](O)[C@@H](NC(=O)OC(C)(C)C)c4ccccc4)C[C@](O)([C@@H](OC(=O)c4ccccc4)[C@H]21)C3(C)C"
### Response -5.5e-05

### Prompt Next: "Cc1ccc(C(=O)CSc2nnc(CNc3ccc(C)cc3C)o2)cc1"
### Response -8.9e-06

### Prompt Next: "COC(=O)COc1ccc(S(=O)(=O)NCCC2=CCCCC2)cc1"
### Response -2.1e-05

### Prompt Next: "Cc1ccc(NC(=O)c2ccc(NS(=O)(=O)c3c(C)noc3C)cc2)cc1C"
### Response -0.000226

### Prompt Next: "COc1ccc(CCNC(=O)c2nc3ncccn3n2)cc1OC"
### Response -4.3e-05

### Prompt Next: "C/C(Cl)=C\Cn1c(NCCc2ccccc2)nc2c1c(=O)n(C)c(=O)n2C"
### Response -2.8e-05

### Prompt Next: "COC(=O)c1cc(Oc2ccc(C(=O)OC)cc2N)cc(C(=O)OC)c1"
### Response -0.000384

### Prompt Next: "Cc1ccc2nc(SCC(=O)NCc3ccco3)c(C#N)cc2c1"
### Response 1.6e-05

### Prompt Next: "N#Cc1c(NC(=O)CSc2nc(N)cc(=O)[nH]2)sc2c1CCCCCC2"
### Response -3.4e-05

### Prompt Next: CC(C)NCC(O)COc1ccc(CC(N)=O)cc1 (configuration not stated)
### Response 1.8e-05

### Prompt Next: CCC(c1nnnn1CCOC)N(Cc1ccc(C)cc1)Cc1cc2cc(OC)ccc2[nH]c1=O (configuration not stated)
### Response -5.3e-05

### Prompt Next: "CCOc1ccc(OCC)c2sc(C)nc12"
### Response -5.9e-05

### Prompt Next: "O=C1NC(=O)C(c2ccccc2)(c2ccccc2)N1"
### Response 3.3e-05

### Prompt Next: CCC(C)c1ccc(NC(=O)C2CC2)cc1 (configuration not stated)
### Response -4.3e-05

### Prompt Next: "CCc1c(C)nc(N)n2c(SCC(=O)N3CCCc4ccccc43)nnc12"
### Response -6.5e-05

### Prompt Next: "COCCCn1c(SCC(=O)N2CCc3ccccc32)nnc1-c1ccoc1C"
### Response -5.6e-05

### Prompt Next: "OCC#CCSc1nnc(-c2ccccc2Br)o1"
### Response -0.000137

### Prompt Next: "Cc1cc(S(=O)(=O)n2cnc3ccccc32)c(C)cc1Cl"
### Response 1.7e-06

### Prompt Next: "CC(C)=CCSc1nnc(CCNC(=O)OC(C)(C)C)o1"
### Response 8.7e-05

### Prompt Next: "Cc1cc(C)cc(NC(=O)N2CCC(c3nc4ccccc4o3)CC2)c1"
### Response 0.00013

### Prompt Next: "CC(=O)CC(=O)Nc1ccccc1NC(C)=O"
### Response -2.4e-05

### Prompt Next: "CCn1c(SCC(=O)N2CCCc3ccccc32)nnc1-c1cccs1"
### Response -2.4e-05

### Prompt Next: "CC1(C)CC(=O)c2cc(OCC(=O)N3CCN(c4ccccc4F)CC3)ccc2O1"
### Response -5.4e-06

### Prompt Next: COc1ccc(N2C(=O)C3CCCN3C2c2ccc(F)cc2)cc1Cl (configuration not stated)
### Response -1.5e-05

### Prompt Next: "O=C(NCCO)c1scc2c1OCCO2"
### Response 6.5e-05

====

target.system: Voltage-gated potassium channel subunit beta-2 (Rattus norvegicus)
procedure.text: inhibitors of rat Kvbeta2 reductase activity – biochemical, NADPH fluorescence, primary screen (AID 622);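 note: slope of raw intensity against log time taken from 70 to 1610 s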
conditions.used: recombinant KvBeta, 4-cyanobenzaldehyde reduction, at 10 µM, stronger effect = higher value
Would you mind telling me the reported fluorescence slope of each entry?
Lab note: jot the number down without any unit.

### Prompt Need fluorescence slope, item "CCOC(=O)c1cnn(-c2ncnc3c2cnn3Cc2ccccc2)c1N"
### Response -0.51

### Prompt Next: "Cc1ccc(CNC(=O)C2CCN(S(=O)(=O)c3c(C)noc3C)CC2)cc1"
### Response -0.493

### Prompt Next: C=CCOc1cccc(C2/C(=C(\O)c3ccc(F)cc3)C(=O)C(=O)N2CCN(C)C)c1 (stereo unspecified)
### Response -0.493

### Prompt Next: "Cc1cccc(-n2ccnc2SCC(=O)Nc2cc(C)on2)c1"
### Response -0.513

### Prompt Next: Cc1ccccc1N(CC(=O)NCC1CCCO1)C(=O)C1(C)CC(=O)N=C2C=CC=CN21 (stereo unspecified)
### Response -0.492

### Prompt Next: "CCOCCCNc1ncnc2c1[nH]c1ccccc12"
### Response -0.513

### Prompt Next: "Cc1ccc(CNC(=O)CCCn2c(=O)c3ccccc3n(CC(=O)NCc3ccco3)c2=O)cc1"
### Response -0.509

### Prompt Next: "CC(C)c1ccc(S(=O)(=O)N2CCN(C(=O)c3cccc(F)c3)CC2)cc1"
### Response -0.525

### Prompt Next: CN1C(=O)NC(NC(=O)C2CCCCC2)(C(F)(F)F)C1=O (stereo unspecified)
### Response -0.579

### Prompt Next: CCc1ncc(C(O)c2cccc(OC)c2OC)n1C (stereo unspecified)
### Response -0.451

### Prompt Next: "COC(=O)COc1ccc(S(=O)(=O)NCCC2=CCCCC2)cc1"
### Response -0.544

### Prompt Next: O=C1CC(N2CCC(C(=O)N3CCCCC3)CC2)C(=O)N1 (stereo unspecified)
### Response -0.554

### Prompt Next: CN(CC(O)COCc1cccs1)C1CCCCC1 (stereo unspecified)
### Response -0.448

### Prompt Next: "C=CCn1c(=O)/c(=C/c2ccc(O)cc2)s/c1=C(/C#N)c1nnc2n1CCCCC2"
### Response -0.332

### Prompt Next: "CCOc1ccc(NC(=O)CN(C)S(=O)(=O)c2cccs2)cc1"
### Response -0.587

### Prompt Next: "CCOc1ccccc1NC(=O)CSc1c(C)n[nH]c1C"
### Response -0.548

### Prompt Next: "CCOC(=O)CCCn1nc(C)n2c(cc3sccc32)c1=O"
### Response -0.406

### Prompt Next: "Cc1cc(NC(=O)c2ccccc2Oc2ccccc2)no1"
### Response -0.532

### Prompt Next: "OCC#CCSc1nnc(-c2ccccc2Br)o1"
### Response -0.515

### Prompt Next: CC(C)(C)n1nnnc1C(c1cccc(C#N)c1)N1CCC(Cc2ccccc2)CC1 (stereo unspecified)
### Response -0.571

### Prompt Next: "COc1ccccc1-c1noc(-c2cccnc2)n1"
### Response -0.568

### Prompt Next: CC1CCCC(NC(=O)CN2CCN(Cc3ccc(Cl)cc3)C2=O)C1C (stereo unspecified)
### Response -0.553

### Prompt Next: "Cn1c(Cc2cccs2)nnc1SCC(=O)N1CCc2ccccc21"
### Response -0.479

### Prompt Next: "CCOC(=O)c1[nH]c2ccccc2c1NC(=O)c1ccco1"
### Response -0.332

### Prompt Next: "CCn1c(SCC(=O)c2ccc3c(c2)OCCO3)nnc1-c1ccco1"
### Response -0.514

### Prompt Next: CCCn1c(NC(=O)C2COc3ccccc3O2)nc2ccccc21 (stereo unspecified)
### Response -0.467

### Prompt Next: c1nc(NCC2CCCO2)c2[nH]cnc2n1 (stereo unspecified)
### Response -0.483

### Prompt Next: "N#Cc1c(NC(=O)CSc2nc(N)cc(=O)[nH]2)sc2c1CCCCCC2"
### Response -0.578

### Prompt Next: "CCN1CCN(C(=O)c2ccc3c(=O)n(CCC4=CCCCC4)c(=O)[nH]c3c2)CC1"
### Response -0.576

### Prompt Next: "CN(C)CC(=O)N1c2ccccc2CCc2ccc(NC(=O)c3ccc(N)cc3)cc21"
### Response -0.571

### Prompt Next: "Cn1cccc1-c1nc2ccc(NC(=O)c3ccco3)cc2[nH]1"
### Response -0.429

### Prompt Next: CC1CN(S(=O)(=O)c2cccc(C(=O)OCc3cc(=O)oc4cc(O)ccc34)c2)CC(C)O1 (stereo unspecified)
### Response -0.288

### Prompt Next: "Cn1c(=O)c2c(nc(SCC(=O)O)n2Cc2cccc(C(F)(F)F)c2)n(C)c1=O"
### Response -0.531

### Prompt Next: "CC(C)=CC(=O)Nc1ccc(Br)cc1"
### Response -0.582

### Prompt Next: CCn1cc(C(=O)NCC2COc3ccccc3O2)c2cc(OC)c(OC)cc2c1=O (stereo unspecified)
### Response -0.481

### Prompt Next: O=C(NC1CCc2ccccc21)C1CCN(S(=O)(=O)c2ccc(-n3cnnn3)cc2)CC1 (stereo unspecified)
### Response -0.553
